Test Summary: Rat pharmacokinetics, i.v. bolus
Type: in vivo, Sprague-Dawley rats
Protocol Conditions: rat, in vivo, iv, 15 mg/kg, female Sprague-Dawley rats, single 15 mg/kg slow i.v. bolus, plasma, LC-MS/MS, noncompartmental, n = 3 to 5/dose
Starred links: 1 amine or outer side, 2 acyl side, 3 side chain; linkers in the order of their positions; H or OH if unused. Positions of bridges follow the written chain, without caps; N, C: chain ends. Non-standard residues stand in square brackets, D forms with d. Residues, ends and D or L forms follow the SMILES beside them. *: point of attachment. Orn(4R-OH,5R-OCH2CH2NMe3+) = C[N+](C)(C)CCO[C@@H](N[*:3])[C@H](O)C[C@H](N[*:1])C(=O)[*:2]; pTerphenylCO(4''-OnC5H11) = CCCCCOc1ccc(-c2ccc(-c3ccc(C(=O)*)cc3)cc2)cc1; hTyr(3S-OH,4S-OH) = N[C@H](C(=O)O)[C@H](O)[C@@H](O)c1ccc(O)cc1; Pro(3S-OH,4S-Me) = C[C@H]1CN[C@H](C(=O)O)[C@H]1O; Hyp = O=C(O)[C@@H]1C[C@@H](O)CN1
Assay Endpoint: AUC(0-t) (µg·h/mL)

INSERT INTO measurements (molecule, assay_endpoint, recorded_value) VALUES
  ('CCCCCOc1ccc(-c2ccc(-c3ccc(C(=O)N[C@H]4C[C@@H](O)[C@@H](OCC[N+](C)(C)C)NC(=O)[C@@H]5[C@@H](O)[C@@H](C)CN5C(=O)[C@H]([C@@H](C)O)NC(=O)[C@H]([C@H](O)[C@@H](O)c5ccc(O)cc5)NC(=O)[C@@H]5C[C@@H](O)CN5C(=O)[C@H]([C@@H](C)O)NC4=O)cc3)cc2)cc1 [CD101] ({pTerphenylCO(4''''-OnC5H11)}-[Orn(4R-OH,5R-OCH2CH2NMe3+)]T[Hyp][hTyr(3S-OH,4S-OH)]T[Pro(3S-OH,4S-Me)]; lactam 1-C)', 'AUC(0-t)', 435);

---

Test Summary: Mouse pharmacokinetics, i.p. injection
Protocol Conditions: in vivo, ip, female ICR (CD-1) mice, single 16 mg/kg i.p., plasma, LC-MS/MS, noncompartmental from mean profile, n = 3/time point
Starred links: 1 amine or outer side, 2 acyl side, 3 side chain; linkers in the order of their positions; H or OH if unused. Positions of bridges follow the written chain, without caps; N, C: chain ends. Non-standard residues stand in square brackets, D forms with d. Residues, ends and D or L forms follow the SMILES beside them. *: point of attachment. Orn(4R-OH,5R-OCH2CH2NMe3+) = C[N+](C)(C)CCO[C@@H](N[*:3])[C@H](O)C[C@H](N[*:1])C(=O)[*:2]; pTerphenylCO(4''-OnC5H11) = CCCCCOc1ccc(-c2ccc(-c3ccc(C(=O)*)cc3)cc2)cc1; hTyr(3S-OH,4S-OH) = N[C@H](C(=O)O)[C@H](O)[C@@H](O)c1ccc(O)cc1; Pro(3S-OH,4S-Me) = C[C@H]1CN[C@H](C(=O)O)[C@H]1O; Hyp = O=C(O)[C@@H]1C[C@@H](O)CN1
Assay Endpoint: half-life (h)

INSERT INTO results (molecule, assay_endpoint, recorded_value) VALUES
  ('CCCCCOc1ccc(-c2ccc(-c3ccc(C(=O)N[C@H]4C[C@@H](O)[C@@H](OCC[N+](C)(C)C)NC(=O)[C@@H]5[C@@H](O)[C@@H](C)CN5C(=O)[C@H]([C@@H](C)O)NC(=O)[C@H]([C@H](O)[C@@H](O)c5ccc(O)cc5)NC(=O)[C@@H]5C[C@@H](O)CN5C(=O)[C@H]([C@@H](C)O)NC4=O)cc3)cc2)cc1 [CD101] ({pTerphenylCO(4''''-OnC5H11)}-[Orn(4R-OH,5R-OCH2CH2NMe3+)]T[Hyp][hTyr(3S-OH,4S-OH)]T[Pro(3S-OH,4S-Me)]; lactam 1-C)', 'half-life', 60.8);
